Where do these numbers come from? They come from patent US20240239790A1.

- system-name: DNA-PK phosphorylation at Serine 2056 (Homo sapiens, UniProt P78527)
- Construct: FaDu cells were purchased from ATCC; host or cells: FaDu
- protocol-details: Cellular Assay for Inhibition of DNA-PK Phosphorylation at Serine 2056 in FaDu cells (sandwich ELISA, neocarzinostatin)
- Type: cell-based
- assay-context: pSer2056 DNA-PK, neocarzinostatin 1 μg/mL, Table 1
parameter: IC50

CN(C)C(=O)COc1ccc(C(=O)N[C@H]2CC[C@@H](Oc3nc(N4CCOCC4)cc4ncccc34)CC2)cn1 :: < 100 nM
CS(=O)(=O)NC(=O)c1cnc2cc(N3CCOCC3)nc(O[C@H]3CC[C@@H](n4ccnc4)CC3)c2c1 :: 10000 to 30000 nM
CC(=O)NCCOc1cnc(N[C@H]2CC[C@@H](Oc3nc(N4CCOCC4)cc4ncccc34)CC2)nc1 :: < 100 nM

# ---- query molecule ----
Sure, the documented IC50 for O=c1[nH]c2cnc(N[C@H]3CC[C@@H](Oc4nc(N5CCOCC5)cc5ncccc45)CC3)nc2n1C1CCOCC1 is < 100 nM

###

- protocol-details: Pharmacokinetic study in male Sprague-Dawley rats (IV and PO), plasma
- Format: in vivo, rat
- assay-context: male, Sprague-Dawley; rat plasma, PO, 10 mg/kg; read-out: AUCINF—obs
parameter: AUC(0-inf) (ng·h/mL)

CN1CCN(CCOc2cnc(N[C@H]3CC[C@@H](Oc4nc(N5CCOCC5)cc5ncccc45)CC3)nc2)CC1 :: 1570
CN(C)C(=O)Cn1ccc2nc(N[C@H]3CC[C@@H](Oc4nc(N5CCOCC5)cc5ncccc45)CC3)ncc21 :: 1490
O=C(COc1cnc(N[C@H]2CC[C@@H](Oc3nc(N4CCOCC4)cc4ncccc34)CC2)nc1)N1CCOCC1 :: 1220

###

- System: pH2AX induction in HCT116 ATM-/- multicellular tumour spheroids
- protocol-details: Prodrug Radiation Sensitization in Multicellular Tumour Spheroids, inhibition of pH2AX induction following radiation
- Type: cell-based
- assay-context: Homo sapiens, HCT-116, 20 Gy, 5% O2, inner layers, read-out: Prodrug 5% O2 Inner layers EC50
# EC50 annotations

CC(Oc1cnc2cc(N3CCOCC3)nc(O[C@H]3CC[C@@H](c4cnccn4)CC3)c2c1)c1cnc([N+](=O)[O-])n1C (stereo partly shown) [LFA2041] :: 10 to 500 nM
CC(c1cnc([N+](=O)[O-])n1C1CC1)N(c1cnc2cc(N3CCOCC3)nc(OC3CCC(Nc4ccn5nccc5n4)CC3)c2c1)S(C)(=O)=O (stereo not shown) [LFA2051] :: 10 to 500 nM
CC(Oc1cnc2cc(N3CCOCC3)nc(OC3CCC(Nc4ncc(OCCN5CCN(C)CC5)cn4)CC3)c2c1)c1cnn(C)c1[N+](=O)[O-] (stereo not shown) [LFA2089] :: 1000 to 10000 nM

# evaluate next
The recorded EC50 for CC(c1cnc([N+](=O)[O-])n1C)N(c1cnc2cc(N3CCOCC3)nc(O[C@H]3CC[C@@H](Nc4cncc(C(F)(F)F)n4)CC3)c2c1)S(C)(=O)=O (stereo partly shown) [LFA2099] is 10000 to 100000 nM

###

- protocol-details: Pharmacokinetic study in mice (IV and PO), plasma
- Assay type: in vivo, mouse
- assay-context: female, C57BL/6; mouse plasma, IV, 3 mg/kg; read-out: Cmax (5 min)
parameter: Cmax (ng/mL)

CN(C)C(=O)Cn1ccc2nc(N[C@H]3CC[C@@H](Oc4nc(N5CCOCC5)cc5ncccc45)CC3)ncc21 :: 6450

A = O=C(COc1cnc(N[C@H]2CC[C@@H](Oc3nc(N4CCOCC4)cc4ncccc34)CC2)nc1)N1CCC1
B = CN1CCN(CCOc2cnc(N[C@H]3CC[C@@H](Oc4nc(N5CCOCC5)cc5ncccc45)CC3)nc2)CC1
// compare: A vs B , metric Cmax, want the smaller State your choice using its label.
B
